# METHOD: AUC (0 to t) in Sprague-Dawley rat at 1 mg/kg, iv
# Assay type: ADME, organism-based
# MEASUREMENT CONDITIONS: in vivo
MEASURE: AUC(0-t)
Number plus unit, in that order.

Sample records with AUC(0-t):
{"STRUCTURE STRING": "O=c1cc(C(F)(F)F)c2ccc(NCc3ccc(Cl)cc3)cc2o1", "AUC(0-t)": "158 ng·h/mL"}
{"STRUCTURE STRING": "O=c1cc(C(F)(F)F)c2ccc(NCc3ccc(F)cc3)cc2o1", "AUC(0-t)": "32.4 ng·h/mL"}
{"STRUCTURE STRING": "CN(Cc1ccc(F)cc1)c1ccc2c(C(F)(F)F)cc(=O)oc2c1", "AUC(0-t)": "426 ng·h/mL"}

Next:
Task: Param item = CN(Cc1ccc(Cl)cc1)c1ccc2c(C(F)(F)F)cc(=O)oc2c1 ; retrieve measured AUC(0-t).
Result: 750 ng·h/mL

====

# TARGET OR TEST SYSTEM: Androgen receptor (Homo sapiens, UniProt P10275)
# Sequence (P10275 whole entry): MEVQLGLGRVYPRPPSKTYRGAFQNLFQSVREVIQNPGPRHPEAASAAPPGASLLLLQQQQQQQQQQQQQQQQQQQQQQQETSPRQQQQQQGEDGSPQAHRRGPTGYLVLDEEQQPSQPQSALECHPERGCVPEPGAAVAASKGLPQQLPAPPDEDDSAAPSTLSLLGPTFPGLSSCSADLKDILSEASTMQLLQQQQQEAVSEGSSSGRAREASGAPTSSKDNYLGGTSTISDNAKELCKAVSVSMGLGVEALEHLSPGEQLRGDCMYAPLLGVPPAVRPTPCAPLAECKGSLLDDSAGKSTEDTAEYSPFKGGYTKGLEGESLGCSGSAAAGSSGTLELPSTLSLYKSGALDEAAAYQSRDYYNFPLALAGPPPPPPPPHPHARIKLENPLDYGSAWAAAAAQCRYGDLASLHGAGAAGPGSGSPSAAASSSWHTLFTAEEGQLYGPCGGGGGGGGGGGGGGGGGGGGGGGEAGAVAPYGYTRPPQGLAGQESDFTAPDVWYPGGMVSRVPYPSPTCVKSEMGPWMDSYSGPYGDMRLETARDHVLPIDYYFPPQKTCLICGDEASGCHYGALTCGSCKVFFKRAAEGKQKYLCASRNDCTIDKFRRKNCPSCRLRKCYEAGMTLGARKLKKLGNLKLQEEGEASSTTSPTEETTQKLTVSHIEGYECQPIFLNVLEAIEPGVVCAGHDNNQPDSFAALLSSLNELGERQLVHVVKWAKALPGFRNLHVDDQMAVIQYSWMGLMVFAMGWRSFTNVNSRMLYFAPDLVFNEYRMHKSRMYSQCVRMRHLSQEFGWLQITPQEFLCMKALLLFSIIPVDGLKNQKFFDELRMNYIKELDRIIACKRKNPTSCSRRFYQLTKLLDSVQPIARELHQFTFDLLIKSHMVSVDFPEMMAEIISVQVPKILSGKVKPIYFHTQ
# METHOD: Antagonist activity at DHT-induced Androgen receptor in human LNCaP cells transfected with ARR2PB-eGFP incubated for 3 days
Field: IC50. Provide a value for each of the molecules that follow.

Sample records with IC50:
{"STRUCTURE STRING": "O=C(Nc1ccc2c(C(F)(F)F)cc(=O)oc2c1)c1ccc(Br)cc1", "IC50": "> 10 µM"}
{"STRUCTURE STRING": "O=c1cc(C(F)(F)F)c2cc([N+](=O)[O-])c(OCc3ccc(Br)cc3)cc2o1", "IC50": "> 10 µM"}

Task: Param item = O=c1cc(C(F)(F)F)c2cc(N3CCCC3)c(OCc3ccc(Br)cc3)cc2o1 ; retrieve measured IC50.
Result: > 10 µM
